- assay system: Ubiquitin-like modifier-activating enzyme ATG7 (Homo sapiens, UniProt O95352)
- Sequence (O95352 whole entry): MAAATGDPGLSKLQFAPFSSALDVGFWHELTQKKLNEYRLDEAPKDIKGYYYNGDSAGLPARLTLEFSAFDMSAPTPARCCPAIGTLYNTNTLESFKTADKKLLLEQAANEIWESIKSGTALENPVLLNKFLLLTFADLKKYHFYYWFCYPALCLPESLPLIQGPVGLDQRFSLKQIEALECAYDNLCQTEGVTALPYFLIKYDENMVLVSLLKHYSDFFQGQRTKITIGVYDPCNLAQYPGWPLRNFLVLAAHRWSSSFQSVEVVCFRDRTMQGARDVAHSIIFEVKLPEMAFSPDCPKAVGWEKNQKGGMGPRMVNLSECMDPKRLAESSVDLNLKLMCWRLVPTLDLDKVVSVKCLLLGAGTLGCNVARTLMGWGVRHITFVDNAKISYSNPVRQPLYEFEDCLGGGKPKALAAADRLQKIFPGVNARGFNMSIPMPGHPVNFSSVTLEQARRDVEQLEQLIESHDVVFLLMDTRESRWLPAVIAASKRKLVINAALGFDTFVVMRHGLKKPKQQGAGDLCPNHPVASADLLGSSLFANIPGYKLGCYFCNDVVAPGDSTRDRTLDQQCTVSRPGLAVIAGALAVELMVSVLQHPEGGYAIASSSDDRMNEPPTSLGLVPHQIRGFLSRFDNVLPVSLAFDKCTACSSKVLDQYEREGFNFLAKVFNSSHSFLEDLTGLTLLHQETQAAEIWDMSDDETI
- assay comment: Inhibition of ATG7 in human 293HEK cells assessed as inhibition of ATG7:ATG8 thioester formation after 4 hrs by Western blot analysis
- Format: cell-based, HEK293
pIC50 for assorted compounds
On this scale, pIC50 is minus log10 of a concentration expressed in M (mol/L).

Known pIC50 results, listed for orientation:
INSERT INTO assay_data (chemical_smiles, quantity_kind, reported_measurement) VALUES
  ('Nc1ncnc2c1c(Sc1cccc(Cl)c1)nn2[C@@H]1O[C@H](COS(N)(=O)=O)[C@@H](O)[C@@H]1F', 'pIC50', 6.70),
  ('CCSc1nn([C@H]2C[C@H](O)[C@@H](COS(N)(=O)=O)O2)c2ncnc(N)c12', 'pIC50', 6.44),
  ('Nc1ncnc2c1c(OC(F)F)nn2[C@@H]1O[C@H](COS(N)(=O)=O)[C@@H](O)[C@@H]1F', 'pIC50', 6.34);

Now look at this entry.
**Q:** Quick one: pIC50 of Nc1ncnc2c1c(OC(F)F)nn2[C@@H]1O[C@H](COS(N)(=O)=O)[C@@H](O)[C@H]1O ?
**A:** 6.32
